From: ChEMBL document CHEMBL3045237

Assay: Hemolytic activity against Homo sapiens (human) RBC at 5 ug/ml after 1 hr by spectrophotometric analysis relative to control
Format: ADME, cell-based, Erythrocyte
Conditions: red blood cells (RBC), read-out: Activity
Catalogue of hemolysis at 1 h, 5 ug/ml values
Note: unit % is implicit; provide only the numeric part.

Some solved cases for reference:
[
  {
    "INPUT_SMILES": "COc1cc(/C=C/C(=N\\NC(N)=O)C(=Cc2ccc(O)cc2)C(/C=C/c2ccc(O)c(OC)c2)=N/NC(N)=O)ccc1O",
    "MEAS_VALUE": 8
  },
  {
    "INPUT_SMILES": "COc1cc(/C=C/C(=N\\NC(N)=O)C(=Cc2cc(OC)c(O)c(OC)c2)C(/C=C/c2ccc(O)c(OC)c2)=N/NC(N)=O)ccc1O",
    "MEAS_VALUE": 2
  }
]

Please look at the following compound next.
Look up and report measured hemolysis at 1 h, 5 ug/ml for this entry: N#Cc1ccc(C(c2ccc(C#N)cc2)n2cncn2)cc1
22

====

Known hemolysis at 1 h, 20 ug/ml of a selection of compounds
Experiment: Hemolytic activity against Homo sapiens (human) RBC at 20 ug/ml after 1 hr by spectrophotometric analysis relative to control
Type: ADME, cell-based, Erythrocyte
Details: red blood cells (RBC), read-out: Activity
A number alone suffices; assume %.

Consider the worked cases shown below.
[
  {
    "INPUT_SMILES": "COc1cc(/C=C/C(=N\\NC(N)=O)C(=Cc2ccc(O)cc2)C(/C=C/c2ccc(O)c(OC)c2)=N/NC(N)=O)ccc1O",
    "MEAS_VALUE": 12
  },
  {
    "INPUT_SMILES": "N#Cc1ccc(C(c2ccc(C#N)cc2)n2cncn2)cc1",
    "MEAS_VALUE": 60
  }
]

Specify measured hemolysis at 1 h, 20 ug/ml for COc1cc(/C=C/C(=N\NC(N)=O)C(=Cc2cc(OC)c(O)c(OC)c2)C(/C=C/c2ccc(O)c(OC)c2)=N/NC(N)=O)ccc1O .
3.9

====

Catalogue of hemolysis at 1 h, 10 ug/ml values
Experiment: Hemolytic activity against Homo sapiens (human) RBC at 10 ug/ml after 1 hr by spectrophotometric analysis relative to control
Type: ADME, cell-based, Erythrocyte
Conditions: red blood cells (RBC), read-out: Activity
Express the result in % but write the number alone.

For orientation, consider the following solved cases.
[
  {
    "COMPOUND": "COc1cc(/C=C/C(=N\\NC(N)=O)C(=Cc2cc(OC)c(O)c(OC)c2)C(/C=C/c2ccc(O)c(OC)c2)=N/NC(N)=O)ccc1O",
    "hemolysis at 1 h, 10 ug/ml / %": 4
  },
  {
    "COMPOUND": "N#Cc1ccc(C(c2ccc(C#N)cc2)n2cncn2)cc1 [LETROZOLE]",
    "hemolysis at 1 h, 10 ug/ml / %": 32
  }
]

Moving on to another compound below.
For the compound COc1cc(/C=C/C(=N\NC(N)=O)C(=Cc2ccc(O)cc2)C(/C=C/c2ccc(O)c(OC)c2)=N/NC(N)=O)ccc1O , report hemolysis at 1 h, 10 ug/ml.
10

====

Parameter hemolysis at 1 h, 50 ug/ml: see the listing below.
Test: Hemolytic activity against Homo sapiens (human) RBC at 50 ug/ml after 1 hr by spectrophotometric analysis relative to control
Assay type: cell-based, Erythrocyte
Conditions: red blood cells (RBC), read-out: Activity

Reference set (2 entries):
[
  {
    "MOLECULE": "COc1cc(/C=C/C(=N\\NC(N)=O)C(=Cc2ccc(O)cc2)C(/C=C/c2ccc(O)c(OC)c2)=N/NC(N)=O)ccc1O",
    "hemolysis at 1 h, 50 ug/ml": "18%"
  },
  {
    "MOLECULE": "N#Cc1ccc(C(c2ccc(C#N)cc2)n2cncn2)cc1 [LETROZOLE]",
    "hemolysis at 1 h, 50 ug/ml": "80%"
  }
]

As a next step, examine the molecule that follows.
Look up hemolysis at 1 h, 50 ug/ml of COc1cc(/C=C/C(=N\NC(N)=O)C(=Cc2cc(OC)c(O)c(OC)c2)C(/C=C/c2ccc(O)c(OC)c2)=N/NC(N)=O)ccc1O and report it.
9%
